Recorded values, source patent US9580416B2.

TESTED_SYSTEM: UniProtKB P06239
Sequence (P06239 whole entry, species assumed): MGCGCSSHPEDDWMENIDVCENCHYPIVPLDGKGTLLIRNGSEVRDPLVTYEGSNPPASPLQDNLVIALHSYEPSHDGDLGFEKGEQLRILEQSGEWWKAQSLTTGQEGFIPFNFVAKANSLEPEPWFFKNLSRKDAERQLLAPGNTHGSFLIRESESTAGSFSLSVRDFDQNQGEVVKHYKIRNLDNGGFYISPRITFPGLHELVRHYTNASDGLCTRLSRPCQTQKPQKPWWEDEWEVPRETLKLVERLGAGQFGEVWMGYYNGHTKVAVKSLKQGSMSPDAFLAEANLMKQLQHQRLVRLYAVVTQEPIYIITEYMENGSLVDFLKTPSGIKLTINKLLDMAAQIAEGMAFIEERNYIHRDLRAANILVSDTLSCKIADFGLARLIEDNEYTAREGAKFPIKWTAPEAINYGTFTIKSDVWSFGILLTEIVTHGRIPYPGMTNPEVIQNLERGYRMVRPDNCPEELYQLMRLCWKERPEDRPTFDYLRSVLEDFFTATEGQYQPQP
METHOD_NOTES: Lck kinase activity, TR-FRET assay
Assay type: biochemical
EXPERIMENTAL_CONTEXT: read-out: LCK (IC50)
OBSERVABLE: IC50

COMPOUND	IC50
Cc1cc(NC(=O)c2cccc(Nc3ccnc4[nH]nc(O[C@@H]5CCCN(C(=O)C6CC6)C5)c34)c2)ccc1C(C)C	1 to 10 µM
Cc1ccnc(NC(=O)c2ccc(Oc3ccnc4[nH]nc(N[C@@H]5CCCN(C(=O)C6(C)CCC6)C5)c34)cc2)c1	1 to 10 µM
C=CC(=O)N1CCC[C@@H](Nc2n[nH]c3nccc(Oc4ccc(-c5ncc(C)s5)cc4)c23)C1	1 to 10 µM
CCOC(=O)N1CCC[C@@H](Nc2n[nH]c3nccc(Oc4ccc(C(=O)Nc5cc(C)ccn5)cc4)c23)C1	0.1 to 1 µM
CN(C)C/C=C/C(=O)N1CC[C@@H](Nc2n[nH]c3nccc(Oc4cccc(Oc5ccccc5)c4)c23)C1	1 to 10 µM

Q: Recall and state the measured IC50 for CN(C)C/C=C/C(=O)N1CCCC(c2n[nH]c3nccc(Oc4ccc(Oc5ccccc5)cc4)c23)C1 (centres unmarked) .
Result: < 0.1 µM

Q: Recall and state the measured IC50 for `CN(C/C=C/C(=O)N1CCCC[C@H]1CNc1n[nH]c2nccc(Oc3ccc(Oc4ccccc4)cc3)c12)C1CC1` .
Result: 0.1 to 1 µM

Q: Recall and state the measured IC50 for `Cc1ccnc(NC(=O)c2ccc(Oc3ccnc4[nH]nc(NC5CCN(C(=O)C6(C)CCN(C)CC6)CC5)c34)cc2)c1` .
Result: 0.1 to 1 µM

Q: Recall and state the measured IC50 for `CC#CC(=O)N1CCC[C@@H](Nc2n[nH]c3nccc(Oc4ccc(C(=O)Nc5nc(C)c(C)s5)cc4)c23)C1` .
Result: 0.1 to 1 µM

Q: Recall and state the measured IC50 for `Cc1ccnc(NC(=O)c2ccc(Oc3ccnc4[nH]nc(N[C@@H]5CCCN(C(=O)C6(C)CCNCC6)C5)c34)cc2)c1` .
Result: 0.1 to 1 µM

Q: Recall and state the measured IC50 for `COCC#CC(=O)N1CCC[C@@H](Nc2n[nH]c3nccc(Oc4ccc(C(=O)Nc5cc(C)ccn5)cc4)c23)C1` .
Result: 1 to 10 µM

Q: Recall and state the measured IC50 for `CN(C)C/C=C/C(=O)N1CC[C@@H](Oc2n[nH]c3nccc(Nc4ccc(Oc5ccccc5)cc4)c23)C1` .
Result: < 0.1 µM

Q: Recall and state the measured IC50 for `C=CC(=O)N1CCC[C@@H](Nc2n[nH]c3nccc(Oc4ccc(C(=O)Nc5ncc(CC)s5)cc4)c23)C1` .
Result: 0.1 to 1 µM

Q: Recall and state the measured IC50 for `CO[C@H]1CC[C@@H](Nc2n[nH]c3nccc(Oc4ccc(C(=O)Nc5cc(C#N)ccn5)cc4)c23)CC1` .
Result: 0.1 to 1 µM
